System: CCRIS mutagenicity, Ames/micronucleus/aberration tests
Experiment: CCRIS mutagenicity studies
Settings: Test System: AMES SALMONELLA TYPHIMURIUM; Strain/Indicator: TA97; Metabolic Activation: NONE; Method: STANDARD PLATE
Calls of active or inactive are those of the source. The rule behind the calls is not given here.
Outcome codes: active, inactive

{"columns": ["MOLECULE", "ANSWER LABEL"],
 "data": [
  ["Cc1cc(O)c2c(c1)C(=O)c1cc(O)cc(O)c1C2=O", "inactive"],
  ["CC(C)C[C@H](NC(=O)COc1cc(Cl)c(Cl)cc1Cl)C(=O)O", "inactive"],
  ["CCOC(=O)c1[nH]c2ccccc2c1N=Cc1cc(OC)c(OC)c(OC)c1", "active"],
  ["O=C(O)/C(Cl)=C(\\CO)C(Cl)Cl", "active"],
  ["C/C=C\\c1cc(OC)c(OC)cc1OC", "inactive"],
  ["ClC(Cl)Br", "inactive"],
  ["c1ccc2c(c1)Cc1ccccc1-2", "inactive"],
  ["CC(=O)N(O)c1ccc(Cl)c(Cl)c1", "inactive"],
  ["Cn1c([N+](=O)[O-])cnc1C1NC(CO)(CO)CO1 (stereo unspecified)", "active"],
  ["CC(C)(C)S(=O)(=O)C[C@@H](Cc1ccccc1)C(=O)N[C@@H](Cc1cnc[nH]1)C(=O)N[C@@H](CC1CCCCC1)[C@@H](O)[C@@H](O)C1CC1", "inactive"],
  ["ClCCCl", "inactive"],
  ["S=c1nc[nH]c2nc[nH]c12", "inactive"],
  ["O=[N+]([O-])c1cc2ccc3cccc4ccc(c1)c2c34", "active"],
  ["CCCCCCC(O)CCCCCCCCCCC(=O)O (stereo unspecified)", "inactive"],
  ["O=C1c2ccccc2-c2c1c1ccccc1c(=O)n2CCNCCO", "inactive"],
  ["Cc1c2ccccc2cc2ccccc12", "inactive"],
  ["ClCBr", "active"],
  ["ONc1ncnc2nc[nH]c12", "active"],
  ["CN(C)C1Cc2cccc3cccc(c23)C1", "inactive"],
  ["ONc1ncnc2c1ncn2Cc1ccccc1", "active"],
  ["Cc1ccncc1", "inactive"]
]}

---

Tested on: CCRIS mutagenicity, Ames/micronucleus/aberration tests
Assay: CCRIS mutagenicity studies
Conditions: Test System: AMES SALMONELLA TYPHIMURIUM; Strain/Indicator: TA100; Metabolic Activation: RAT LIVER S-9, PHENOBARBITAL AND BETA-NAPHTHOFLAVONE; Method: PREINCUBATION
Activity calls are given as the source filed them. The rule behind the calls is not given here.

{"columns": ["COMPOUND", "mutagenic call"],
 "data": [
  ["Nc1cccc2cccc(S(=O)(=O)O)c12", "inactive; negative"],
  ["N=C(N)N", "inactive; negative"],
  ["Cc1ccc(N)cc1N", "active; positive"],
  ["[O-][Cl+3]([O-])([O-])O", "inactive; negative"],
  ["CCCCCCCCCCCCCCCCCC(=O)NCCNC(=O)CCCCCCCCCCCCCCCCC", "inactive; negative"],
  ["N[C@@H](CC(=O)O)C(=O)O", "inactive; negative"],
  ["COC(C)CCO (stereo not given)", "inactive; negative"],
  ["Clc1ccc(C(Cl)(Cl)Cl)cc1", "active; positive"],
  ["O=S(O)CO", "inactive; negative"],
  ["OCCCCCCO", "inactive; negative"]
]}

---

Tested on: CCRIS mutagenicity, Ames/micronucleus/aberration tests
Assay: CCRIS mutagenicity studies
Conditions: Test System: E. COLI; Strain/Indicator: WP2 UVRA; Metabolic Activation: MOUSE, LIVER, S-9; Method: STANDARD PLATE
The source made the active and inactive calls. How the calls were made is not given here.
Outcome codes: YES (active), NO (inactive)

{"columns": ["MOLECULE", "ANSWER LABEL"],
 "data": [
  ["CC(=O)OC/N=[N+](/C)[O-]", "NO"],
  ["CCN(CC)N=O", "NO"],
  ["COc1ccc(N)cc1", "NO"],
  ["CC(=O)Nc1cccc2c1-c1ccccc1C2", "NO"],
  ["CCOP(=S)(OCC)Oc1cc(C)nc(C(C)C)n1", "NO"],
  ["CN(C)c1ccc(C(=O)c2ccc(N(C)C)cc2)cc1", "NO"],
  ["Nc1cccc2c(N)cccc12", "NO"],
  ["O=Nc1ccc(NO)cc1", "NO"],
  ["Nc1ccc(Cl)c(N)c1", "NO"],
  ["O=CC1CO1 (stereo unspecified)", "YES"],
  ["Nc1ccc2ccccc2c1", "NO"]
]}

---

System: CCRIS mutagenicity, Ames/micronucleus/aberration tests
Test: CCRIS mutagenicity studies
Settings: Test System: AMES SALMONELLA TYPHIMURIUM; Strain/Indicator: TA98; Metabolic Activation: HAMSTER, LIVER, S-9, AROCLOR 1254 (30%); Method: PREINCUBATION
Excerpt: The CCRIS database contains chemical records with carcinogenicity, mutagenicity, tumor promotion, and tumor inhibition test results. It was developed by the National Cancer Institute (NCI). Data are derived from studies cited in primary journals, current awareness tools, NCI reports, and other sources. Test results have been reviewed by experts in carcinogenesis and mutagenesis. CCRIS provides historical information from the years 1985 - 2011. It is no longer updated. […]
Calls of active or inactive are those of the source. The rule behind the calls is not given here.
Outcome codes: 1 = active, 0 = inactive

{"columns": ["COMPOUND", "ANSWER LABEL"],
 "data": [
  ["Cc1cc(O)c2c(c1)C(=O)c1cc(O)cc(O)c1C2=O", 0],
  ["CCCCCCCCCCCCCCCCCC[N+](C)(C)Cc1ccccc1", 0],
  ["Nc1c(Cl)cc(Cl)cc1Cl", 0],
  ["O=C(O)CNC(=O)c1ccc([N+](=O)[O-])cc1", 0],
  ["Nc1ccccc1Cl", 0],
  ["COc1ccc(N)cc1", 0],
  ["CN(C)c1ccc(N)cc1", 1],
  ["COc1ccccc1O", 0],
  ["CC(C)(C)c1ccc(OCC2CO2)cc1 (configuration not stated)", 0],
  ["[O]=[Cr](=[O])([OH])[O][Cr](=[O])(=[O])[OH]", 1],
  ["CCOP(=O)(NC(C)C)Oc1ccc(SC)c(C)c1 (configuration not stated)", 0],
  ["O=[N+]([O-])c1ccccc1Nc1ccccc1", 0],
  ["S=c1nc[nH]c2nc[nH]c12", 0],
  ["ClCBr", 1],
  ["ClCc1ccccc1", 0],
  ["Cc1cccc2cccnc12", 1],
  ["Clc1ccc(C(Cl)(Cl)Cl)cc1Cl", 1],
  ["CC(CCl)OP(=O)(OC(C)CCl)OC(C)CCl (configuration not stated)", 0],
  ["CCN(CC)c1ccc2c(-c3ccccc3C(=O)O)c3ccc(=[N+](CC)CC)cc-3oc2c1", 0],
  ["CC(=O)CC(C)C", 0],
  ["C=CC(=O)OCCCCCCOC(=O)C=C", 0],
  ["CCCCCCC(=O)O", 0],
  ["CC1OC1C (configuration not stated)", 0],
  ["CCc1cc(C(N)=S)ccn1", 0],
  ["CC1CCCC1", 0],
  ["Clc1cccc2ccccc12", 0],
  ["CCCCCCCCCCCCCCCCC1CO1 (configuration not stated)", 0],
  ["CCN(CC)N=O", 1],
  ["CCCCCCCCCCCC(=O)[O][Sn]([CH2]CCC)([CH2]CCC)[O]C(=O)CCCCCCCCCCC", 0],
  ["CN(C)c1ccc(N(C)C)cc1", 1],
  ["N#CC(O)c1ccccc1 (configuration not stated)", 0],
  ["COC(=O)c1ccccc1O", 0]
]}

---

Tested on: CCRIS mutagenicity, Ames/micronucleus/aberration tests
Assay: CCRIS mutagenicity studies
Details: Test System: AMES SALMONELLA TYPHIMURIUM; Strain/Indicator: TA1538; Metabolic Activation: NONE; Method: STANDARD PLATE
The source made the active and inactive calls. No rule for the calls is given here.
Outcome codes: class 1 for active, class 0 for inactive

{"columns": ["MOLECULE", "MEASURED TARGET", "ANSWER LABEL"],
 "data": [
  ["CC/C=C\\C/C=C\\C/C=C\\CCCCCCCC(=O)O", "CCRIS mutagenicity, Ames/micronucleus/aberration tests", "class 0"],
  ["Cn1c2ccccc2c(=O)c2c(O)cc3c(c21)CC(C(C)(O)CCl)O3 (stereo unspecified)", "CCRIS mutagenicity, Ames/micronucleus/aberration tests", "class 1"],
  ["CCOc1cc(N=Nc2ccccc2)ccc1N=Nc1c(S(=O)(=O)O)cc2ccc(N)cc2c1O", "CCRIS mutagenicity, Ames/micronucleus/aberration tests", "class 0"],
  ["Nc1ccc2[nH]c3ccccc3c2c1", "CCRIS mutagenicity, Ames/micronucleus/aberration tests", "class 0"],
  ["O=[N+]([O-])C1=Cc2c3c1cccc3cc1ccc3ccccc3c21", "CCRIS mutagenicity, Ames/micronucleus/aberration tests", "class 1"],
  ["CCOC(=O)CBr", "CCRIS mutagenicity, Ames/micronucleus/aberration tests", "class 0"]
]}
